experimental-target: Human TRPC6 (Homo sapiens, UniProt Q9Y210)
Construct: expressed in transfected cells
Sequence (Q9Y210 whole entry): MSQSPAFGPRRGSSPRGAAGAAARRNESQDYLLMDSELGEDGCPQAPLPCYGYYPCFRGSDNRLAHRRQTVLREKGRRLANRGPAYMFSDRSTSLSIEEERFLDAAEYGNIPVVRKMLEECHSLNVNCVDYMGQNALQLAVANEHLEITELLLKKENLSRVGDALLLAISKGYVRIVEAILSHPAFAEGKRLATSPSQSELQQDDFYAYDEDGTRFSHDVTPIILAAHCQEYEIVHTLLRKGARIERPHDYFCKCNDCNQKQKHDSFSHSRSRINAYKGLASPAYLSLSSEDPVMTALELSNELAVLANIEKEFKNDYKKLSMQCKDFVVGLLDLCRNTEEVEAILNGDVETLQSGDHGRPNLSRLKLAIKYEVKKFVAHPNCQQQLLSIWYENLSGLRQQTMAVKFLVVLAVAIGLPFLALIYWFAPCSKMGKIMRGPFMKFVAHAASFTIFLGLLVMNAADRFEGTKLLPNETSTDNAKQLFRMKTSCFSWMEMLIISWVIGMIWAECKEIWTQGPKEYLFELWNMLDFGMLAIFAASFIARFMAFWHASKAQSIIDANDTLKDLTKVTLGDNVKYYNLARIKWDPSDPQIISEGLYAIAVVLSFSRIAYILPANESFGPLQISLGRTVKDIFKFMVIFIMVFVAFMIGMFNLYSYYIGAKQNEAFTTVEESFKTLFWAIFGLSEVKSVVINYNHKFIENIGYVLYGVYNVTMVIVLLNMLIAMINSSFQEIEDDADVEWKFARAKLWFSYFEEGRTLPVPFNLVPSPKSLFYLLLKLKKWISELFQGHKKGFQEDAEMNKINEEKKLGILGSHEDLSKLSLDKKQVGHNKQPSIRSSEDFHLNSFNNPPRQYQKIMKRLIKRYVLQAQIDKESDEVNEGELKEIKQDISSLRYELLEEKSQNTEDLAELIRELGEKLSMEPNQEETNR
assay-explanation: Evaluation of TRPC6 channel inhibitory activity (1), FLIPR Calcium 5 Assay Kit, OAG stimulation (Compound Nos. 1-1293)
Format: cell-based
condition-label: Human TRPC6 stably-expressing cells, OAG 30 μM, FLIPR Calcium 5 Assay Kit; read-out: Inhibitory activity (pIC50 class) (converted)
Provide the reported IC50 of each item.

CC(C)OCc1cc(Oc2cc(C#N)ccc2-c2ccc(CCN)cn2)n(C)n1 yielded IC50 of 10 to 1000 nM

Lookup result for Cc1c(Oc2cc(C#N)ccc2-c2ncc(CCN)cn2)cnn1CC(C)C ; measured IC50: 10 to 1000 nM

Reported IC50 of CCN(CC)c1cc(Cc2cc(C#N)ccc2-c2ccc(CCN)cn2)n(C)n1 : < 10 nM

Recorded IC50 (compound Cn1nc(-c2ccccn2)cc1Oc1cc(C#N)ccc1-c1ccc(C(O)CN)cc1 (stereo not drawn) ): < 10 nM

compound CCCCOc1cc(Oc2cc(C#N)ccc2-c2ccc(CCN)cc2)nc(C)n1 , IC50 observed: > 1000 nM

# IC50 (compound: Cc1nc(Oc2cc(C#N)ccc2-n2ccc(C(O)CN)n2)cc(N2CCOCC2)n1 (stereo not drawn) ) is 10 to 1000 nM

Form field IC50, entry Cc1cc(Oc2cc(C#N)ccc2-c2ncc([C@H](O)CN)cn2)cc(N2CCO[C@@H](C)C2)n1 : < 10 nM

Just so you know, measured IC50 for Cc1nc(Oc2cc(C#N)ccc2-c2ccc(C3CCNC3)cc2)cc(N2CCOCC2)n1 (stereo not drawn) came out at 10 to 1000 nM

Form: compound = CNc1cc(C(=O)c2cc(C#N)ccc2-c2ccc(CCN)cn2)n(C)n1 ; IC50 = < 10 nM
